- method: Plasma pharmacokinetics of degarelix
- Format: in vivo, human (Japanese patients with prostate cancer)
- condition.context: male, human, plasma, sc, 360 mg
Where a SMILES comes first, the peptide text is derived from it. [ ]: non-standard residue; d: D form. The star is where a group is joined. dPhe(4-NHCONH2) = NC(=O)Nc1ccc(C[C@@H](N)C(=O)O)cc1; Dihydroorotyl(S) = O=C1C[C@@H](C(=O)*)NC(=O)N1; dPhe(4-Cl) = N[C@H](Cc1ccc(Cl)cc1)C(=O)O; Phe(4-NH2) = Nc1ccc(C[C@H](N)C(=O)O)cc1; d2Nal = N[C@H](Cc1ccc2ccccc2c1)C(=O)O; Lys(iPr) = CC(C)NCCCC[C@H](N)C(=O)O; d3Pal = N[C@H](Cc1cccnc1)C(=O)O
endpoint: Cmax (ng/mL)
// return numeric value only (unit: ng/mL, not printed)

The measured Cmax associated with CC(=O)N[C@H](Cc1ccc2ccccc2c1)C(=O)N[C@H](Cc1ccc(Cl)cc1)C(=O)N[C@H](Cc1cccnc1)C(=O)N[C@@H](CO)C(=O)N[C@@H](Cc1ccc(NC(=O)[C@@H]2CC(=O)NC(=O)N2)cc1)C(=O)N[C@H](Cc1ccc(NC(N)=O)cc1)C(=O)N[C@@H](CC(C)C)C(=O)N[C@@H](CCCCNC(C)C)C(=O)N1CCC[C@H]1C(=O)N[C@H](C)C(N)=O [degarelix] (Ac-[d2Nal][dPhe(4-Cl)][d3Pal]S[Phe(4-NH2)](Dihydroorotyl(S))[dPhe(4-NHCONH2)]L[Lys(iPr)]P[dA]-NH2) reads 74.7
